Tested on: HMPV clinical isolate TN/1501/A1
Test: HMPV antiviral assay Method-B (clinical isolate TN/1501/A1 in LLC-MK2 cells, ATP-Lite readout)
Type: cell-based, Human metapneumovirus (HMPV)
Conditions: human metapneumovirus, LLC-MK2, 144 h, hMPV WT1501 (clinical isolate TN/1501/A1), 6 days
Protocol: In vitro HMPV antiviral activity was evaluated using the clinical isolate TN/1501/A1 and LLC-MK2 cells (ATCC #CCL-7), an immortalized kidney epithelial cell line from Macaca mulatta. […] The test compounds were assessed in duplicate at a top concentration of 10 μM followed by 3-fold serial dilutions to give a total of 10 concentration points. […] Cells were counted and seeded at a density of 5,000 cells/well, 12.5 μL/well. […]
PARAMETER_MEASURED: EC50

- COc1cc(C(=O)NC[C@](O)(c2nc(-c3ccc(F)cc3)c3c(c2F)[C@@](C)(C(N)=O)CO3)C(F)(F)F)cc2cn(C3CC3)nc12 [Example 851]: < 500 nM
- COc1cc(C(=O)NC[C@](O)(c2cc3c(c(-c4ccc(C(F)F)cc4)n2)OC[C@]3(C)C(N)=O)C(F)(F)F)cc2cn(C3CC3)nc12 [Example 896]: > 500 nM
- COc1cc(C(=O)NC[C@](O)(c2cc3c(c(-c4ccc5nc(C)ccc5c4)n2)OC[C@]3(C)C(N)=O)C(F)(F)F)cc2cn(C3CC3)nc12 [Example 967]: > 500 nM
- COc1cc(C(=O)NC[C@](O)(c2cc3c(c(-c4ccc(F)c(Cl)c4F)n2)OC[C@]3(C)C(N)=O)C2CC2)cc2cc(C(F)(F)F)cnc12 [Example 572]: < 500 nM
- COc1cc(C(=O)NC[C@](O)(c2cc3c(c(-c4cccc(F)c4Cl)n2)OC[C@]3(C)C(N)=O)C(F)(F)F)cc2cn(C(F)F)nc12 [Example 1120]: < 500 nM
- COc1cc(C(=O)NC[C@@](O)(c2cc3c(c(-c4cc(Br)c(F)cc4F)n2)OC[C@]3(C)C(N)=O)C(F)(F)F)cc2cn(C3CC3)nc12 [Example 957]: < 500 nM
- COc1cc(C(=O)NC[C@](O)(c2cc3c(c(-c4cc5c(cc4Cl)OC(F)(F)O5)n2)OC[C@]3(C)C(N)=O)C(F)(F)F)cc2cn(C3CC3)nc12 [Example 1227]: < 500 nM
- COc1cc(C(=O)NC[C@](O)(c2cc3c(c(-c4ccc(F)c(Cl)c4)n2)OC[C@]3(C)C(N)=O)C2CC2)cc2cc(C3CC3)nn12 [Example 703]: < 500 nM
- COc1cc(C(=O)NC[C@](O)(c2cc3c(c(-c4ccc(F)c(F)c4F)n2)OC[C@]3(C(N)=O)C(F)F)C(F)(F)F)cc2cc(Cl)c(C)nc12 [Example 1040]: > 500 nM
- C[C@]1(C(N)=O)COc2c1cc([C@@](O)(CNC(=O)c1ccn3nc(C4CC4)cc3c1)C1CC1)nc2-c1ccc2c(c1)OC(F)(F)O2 [Example 824]: < 500 nM
- COc1cc(C(=O)NC[C@](O)(c2cc3c(c(-c4ccc5c(c4)OC(F)(F)O5)n2)OC[C@]3(C)C(N)=O)C(F)(F)F)ccc1OC1CC1 [Example 817]: < 500 nM
- COc1cc(C(=O)NC[C@](O)(c2cc3c(c(-c4ccc(F)cc4)n2)OC[C@@]3(C(N)=O)C(F)F)C2CC2)cc2cn(C3CC3)nc12 [Example 1023]: < 500 nM

----------
tested on: HMPV clinical isolate TN/1501/A1; assay: HMPV antiviral assay Method-B (clinical isolate TN/1501/A1 in LLC-MK2 cells, ATP-Lite readout); type: cell-based, Human metapneumovirus (HMPV); conditions: human metapneumovirus, LLC-MK2, 144 h, hMPV WT1501 (clinical isolate TN/1501/A1), 6 days
pEC50: −log10 of the molar value.
PARAMETER_MEASURED: pEC50

• Cc1cnc2c(OC(F)(F)F)cc(C(=O)NC[C@](O)(c3cc4c(c(-c5ccc(F)c(F)c5F)n3)OC[C@]4(C)C(N)=O)C(F)(F)F)cc2c1 [Example 515] = > 6.30
• COc1cc(C(=O)NC[C@](O)(c2cc3c(c(-c4cccc(Cl)c4)n2)OC[C@]3(C)C(N)=O)C(F)(F)F)cc2cn(C3CC3)nc12 [Example 975] = > 6.30
• CNC(=O)[C@@]1(C)COc2c1cc([C@@](O)(CNC(=O)c1cc(OC)c3nn(C4CC4)cc3c1)C(F)(F)F)nc2-c1ccc(F)cc1 [Example 1190] = > 6.30
• COc1cc(C(=O)NC[C@@](O)(c2cc3c(c(-c4ccc(OC(F)F)cc4)n2)OC[C@]3(C)C(N)=O)C(F)(F)F)cc2cn(C3CC3)nc12 [Example 925] = < 6.30
• COc1cc(C(=O)NC[C@](O)(c2cc3c(c(-c4csc5c(F)cccc45)n2)OC[C@]3(C)C(N)=O)C(F)(F)F)cc2cc(Cl)c(C)nc12 [Example 596] = > 6.30
• COc1cc(C(=O)NC[C@](O)(c2cc3c(c(-c4ccc(F)c(F)c4F)n2)OC[C@]3(C)C(N)=O)C2(F)CC2)cc2cc(Cl)c(C)nc12 [Example 731] = > 6.30
• COc1ccc(C(=O)NC[C@](O)(c2cc3c(c(-c4ccc(F)cc4)n2)OC[C@]3(C)C(N)=O)C(F)(F)F)c2[nH]ccc12 [Example 696] = < 6.30
• Cc1cnc2c(Cl)cc(C(=O)NC[C@](O)(c3cc4c(c(-c5ccc(F)c(F)c5F)n3)OC[C@]4(C)C(N)=O)C(F)(F)F)cc2c1 [Example 513] = > 6.30
• Cc1cnc2c(OC(F)F)cc(C(=O)NC[C@](O)(c3cc4c(c(-c5ccc6c(c5)OC(F)(F)O6)n3)OC[C@]4(C(N)=O)C(F)F)C3CC3)cc2c1 [Example 1020] = < 6.30
• COc1cc(C(=O)NC[C@](O)(c2cc3c(c(-c4ccc(F)c(Cl)c4)n2)OC[C@@]3(C(N)=O)C(F)F)C(F)(F)F)cc2cn(C3CC3)nc12 [Example 1003] = > 6.30
• Cc1cnc2c(OC(F)F)cc(C(=O)NC[C@](O)(c3cc4c(c(-c5ccc(F)cc5)n3)OC[C@]4(CF)C(N)=O)C3CC3)cc2c1 [Example 1058] = > 6.30
• COc1cc(C(=O)NC[C@](O)(c2cc3c(c(-c4ccc(F)c(Cl)c4F)n2)OC[C@]3(C)C(N)=O)C2CC2)cc2cc(Br)cnc12 [Example 561] = > 6.30

----------
test system: HMPV clinical isolate TN/1501/A1; assay: HMPV antiviral assay Method-B (clinical isolate TN/1501/A1 in LLC-MK2 cells, ATP-Lite readout); format: cell-based, Human metapneumovirus (HMPV); settings: human metapneumovirus, LLC-MK2, 144 h, hMPV WT1501 (clinical isolate TN/1501/A1), 6 days
pEC50: −log10 of the molar value.
// values below are reported pEC50
PARAMETER_MEASURED: pEC50

- COc1cc(C(=O)NC[C@](O)(c2cc3c(c(-c4cc(Cl)c(F)cc4F)n2)OC[C@]3(C)C(N)=O)C2CC2)cc2cn(C(F)F)nc12: > 6.30
- C[C@]1(C(N)=O)COc2c(-c3ccc4c(c3)OC(F)(F)O4)nc([C@@](O)(CNC(=O)c3cc(Cl)c4nn(C5CC5)cc4c3)C3CC3)c(F)c21: > 6.30
- COc1cc(C(=O)NC[C@](O)(c2cc3c(c(-c4cc(F)c(Cl)cc4F)n2)OC[C@]3(C)C(N)=O)C2CC2)cc2cc(Cl)c(C)nc12: > 6.30
- COc1cc(C(=O)NC[C@](O)(c2cc3c(c(-c4ccc(F)c(F)c4F)n2)OC[C@]3(C)C(N)=O)C(F)(F)F)cc2cc(C3CC3)nn12: > 6.30
- Cc1cnc2c(OC(F)F)cc(C(=O)NC[C@](O)(c3cc4c(c(-c5ccc(F)cc5)n3)OC[C@]4(C(N)=O)C(F)F)C3CC3)cc2c1: < 6.30
- COc1cc(C(=O)NC[C@](O)(c2cc3c(c(-c4cc(F)c(Cl)cc4F)n2)OC[C@]3(C)C(N)=O)C2CC2)cc2cn(C(F)F)nc12: > 6.30

----------
tested on: HMPV clinical isolate TN/1501/A1; assay: HMPV antiviral assay Method-B (clinical isolate TN/1501/A1 in LLC-MK2 cells, ATP-Lite readout); assay type: cell-based, Human metapneumovirus (HMPV); settings: human metapneumovirus, LLC-MK2, 144 h, hMPV WT1501 (clinical isolate TN/1501/A1), 6 days
This listing pairs molecules with measured EC50.
PARAMETER_MEASURED: EC50

* C[C@]1(C(N)=O)COc2c1cc([C@@](O)(CNC(=O)c1cc(Cl)c3nn(C4CC4)cc3c1)C1CC1)nc2-c1ccc(F)c(Br)c1F [Example 800] | < 500 nM
* COc1cc(C(=O)NC[C@](O)(c2cc3c(c(-c4ccc(F)c(Cl)c4)n2)OC[C@]3(C)C(N)=O)C2(F)CC2)cc2cc(C3CC3)nn12 [Example 718] | > 500 nM
* COc1cc(C(=O)NC[C@](O)(c2cc3c(c(-c4cccc(Br)c4F)n2)OC[C@]3(C)C(N)=O)C(F)(F)F)cc2cn(C3CC3)nc12 [Example 960] | < 500 nM
* C[C@]1(C(N)=O)COc2c1cc([C@@](O)(CNC(=O)c1cc(Cl)c3nn(C4CC4)cc3c1)C(F)(F)F)nc2-c1ccc(F)c(F)c1Cl [Example 780] | < 500 nM
* CC[C@](O)(CNC(=O)c1cc(OC)c2nc(C)c(Cl)cc2c1)c1cc2c(c(-c3ccc(F)cc3)n1)OC[C@]2(C)C(N)=O [Example 643] | < 500 nM
* COc1cc(C(=O)NC[C@](O)(c2cc3c(c(-c4ccccc4-c4ccccc4)n2)OC[C@]3(C)C(N)=O)C(F)(F)F)cc2cn(C3CC3)nc12 [Example 1250] | > 500 nM
